Reported half-life is given for each of the following molecules.
assay: Half life in rat; type: ADME, organism-based; conditions: in vivo
Dear colleague, please return just the value in h, with no unit written.

Form: molecule = CCn1c(Nc2ccccc2C)nc2cnc(Oc3c(F)cccc3F)nc21 ; half-life = 1.5

Form: molecule = CC(C)n1c(Nc2ccccc2F)nc2cnc(Oc3c(F)cccc3F)nc21 ; half-life = 1.5

###

experiment: Metabolic stability in Sprague-Dawley rat liver microsomes assessed as percent loss after 4 hrs; format: ADME, Microsome; details: hepatocytes, in the assay text read “hepatocytes” for “liver microsomes”, read-out: Activity
Reported metabolised at 4 h is given for each of the following compounds.
Dear colleague, please return just the value in %, with no unit written.

compound_string=CCn1c(Sc2ccccc2Cl)nc2cnc(Oc3c(F)cccc3F)nc21 assay_metric="metabolised at 4 h" endpoint_value=75
compound_string=CC(C)n1c(Nc2ccccc2F)nc2cnc(Oc3c(F)cccc3F)nc21 assay_metric="metabolised at 4 h" endpoint_value=61
compound_string=CCn1c(Nc2ccccc2C)nc2cnc(Oc3c(F)cccc3F)nc21 assay_metric="metabolised at 4 h" endpoint_value=56
compound_string=CCn1c(C(=O)c2ccccc2Cl)nc2cnc(Oc3c(F)cccc3F)nc21 assay_metric="metabolised at 4 h" endpoint_value=82

Okay, now this compound:
Form: compound = CCn1c(Nc2ccccc2F)nc2cnc(Oc3c(F)cccc3F)nc21 ; metabolised at 4 h = 65

###

test: Bioavailability in rat; type: ADME, organism-based; conditions: in vivo
assay_metric: bioavailability (%)
Dear colleague, please return just the value in %, with no unit written.

compound_string=CCn1c(Nc2ccccc2C)nc2cnc(Oc3c(F)cccc3F)nc21 endpoint_value=9

Form: compound = CC(C)n1c(Nc2ccccc2F)nc2cnc(Oc3c(F)cccc3F)nc21 ; bioavailability = 9
